meta.source: patent US20130109846A1

Test System: human CD28 (human, UniProt P10747 19-220)
Assay Method Text: cell-based or functional assay
Assay Metric: Luciferase assay (EC50) (nM)
Give just the number in nM; leave the unit off.

Q: Can you look up the measured Luciferase assay (EC50) of 1h-99-230 (other) VH: EVQLLESGGGLVQPGGSLRLSCAASGFTFDSANMSWVRQAPGKGLEWVSWIESIGVQTFYADSVKGRFTISRDNSKNTLYLQMNSLRAEDTAVYYCAKSPFGPLYGFDYRGQGTLVTVSS for me?
A: 9

Q: Cool, now 1h-99-221 (other) VH: EVQLLESGGGLVQPGGSLRLSCAASGFTFARSNMSWVRQAPGKGLEWVSWIEDTGTQTFYADSVKGRFTISRDNSKNTLYLQMNSLRAEDTAVYYCAKSPFGPLYGFDYRGQGTLVTVSS
A: 12

Q: Cool, now 1h-99-268 (other) VH: EVQLLESGGGLVQPGGSLRLSCAASGFTFKSANMSWVRQAPGKGLEWVSWIEAPGVQTFYADSVRGRFTISRDNSKNTLYLQMNSLRAEDTAVYYCARSPFGPLYGFDYRGQGTLVTVSS
A: 11

Q: Cool, now 1h-99-2112 (other) VH: EVQLLESGGGLVQPGGSLRLSCAASGFTFKDKNMSWARQAPGKGLEWVSWIEAPGVQTFYADSVRGRFTISRDNSKNTLYLQMNSLRAEDTAVYYCARSPFGPLYGFDYRGQGTLVTVSS
A: 3
